Kindly supply the reported IC50 values for the records listed here.
# ASSAYED TARGET: HLA-DRB1*04:01 (Homo sapiens, UniProt P01903+P01911, A100K/A169T/F76Y/I96L/K127E/L162R/M171V/N62H/P40V/Q125Y/R42H/S133A/S149N/S66Y/V115G/V209L/W38E)
# Construct: EBV transformed homozygous cell lines were used as sources of MHC molecules; endogenous in cells; host or cells: EBV transformed homozygous cell lines
# ASSAY NOTES: HLA class II peptide binding, inhibition of radiolabeled peptide binding to purified MHC
# RECORDED CONDITIONS: citrullinated peptide as listed (X at Cit position); read-out: DRB1*04:01 binding capacity Cit peptide (IC50 nM)
Square brackets hold non-standard residues; d marks the D form. Peptide text beside a SMILES is read from it. Cit = NC(=O)NCCC[C@H](N)C(=O)O
Please answer using a numeric value trailed by its unit.

Which IC50 is listed for CSCC[C@H](NC(=O)[C@H](Cc1ccc(O)cc1)NC(=O)[C@H](CCC(N)=O)NC(=O)[C@@H](N)CC(C)C)C(=O)N[C@@H](CCCNC(N)=O)C(=O)N[C@@H](C)C(=O)N[C@@H](CC(=O)O)C(=O)N[C@@H](CCC(N)=O)C(=O)N[C@@H](C)C(=O)N[C@@H](C)C(=O)NCC(=O)NCC(=O)N[C@@H](CC(C)C)C(=O)N[C@@H](CCCNC(=N)N)C(=O)N[C@@H](CCC(N)=O)C(=O)O [LQYMXADQAAGGLRQ] (H-LQYM[Cit]ADQAAGGLRQ-OH) ?
69 nM

Which IC50 is listed for CC[C@H](C)[C@H](NC(=O)[C@H](CC(C)C)NC(=O)[C@@H](N)CC(C)C)C(=O)N[C@@H](CCC(N)=O)C(=O)NCC(=O)N[C@@H](CO)C(=O)N[C@@H](CC(N)=O)C(=O)N[C@@H](CC(=O)O)C(=O)N[C@H](C(=O)N[C@@H](CCC(=O)O)C(=O)N[C@H](C(=O)N[C@@H](CCCNC(N)=O)C(=O)N[C@@H](C)C(=O)N[C@@H](CCC(=O)O)C(=O)NCC(=O)O)[C@@H](C)CC)C(C)C [LLIQGSNDVEIXAEG] (H-LLIQGSNDVEI[Cit]AEG-OH) ?
8740 nM

Which IC50 is listed for CSCC[C@H](NC(=O)[C@H](Cc1ccc(O)cc1)NC(=O)[C@H](CCC(N)=O)NC(=O)[C@@H](N)CC(C)C)C(=O)N[C@@H](CCCNC(=N)N)C(=O)N[C@@H](C)C(=O)N[C@@H](CC(=O)O)C(=O)N[C@@H](CCC(N)=O)C(=O)N[C@@H](C)C(=O)N[C@@H](C)C(=O)NCC(=O)NCC(=O)N[C@@H](CC(C)C)C(=O)N[C@@H](CCCNC(N)=O)C(=O)N[C@@H](CCC(N)=O)C(=O)O [LQYMRADQAAGGLXQ] (H-LQYMRADQAAGGL[Cit]Q-OH) ?
83 nM

Values from paper PMC5421785
